B1: ANKRD40 (parent)
chain: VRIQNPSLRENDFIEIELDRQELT

Variants of: B1
assay_notes: protein stability index of a GFP-peptide fusion (GPS, HEK-293T) (PSI 1-6); higher = more stable;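 further: lentivirally expressed fusions sorted by FACS into six bins by GFP to DsRed ratio, PSI derived from sequencing read proportions per bin multiplied by bin number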
setup_conditions: c terminus: a fixed tail appended
readout_type: protein stability index

>>> assay_value("VRIQNPSLRENDFIEIELDRMELT [Q21M]")
2.01
>>> assay_value("VRIQNPSLRENDFIEIEIDRQELT [L18I]")
2.01

# evaluate next
Ask: Reported protein stability index, variant VRIYNPSLRENDFIEIELDRQELT [Q4Y] : ____
Result: 1.98
